# Target System: Cytochrome P450 2D6 (Homo sapiens) (UniProt P10635)
# Sequence (P10635 whole entry, looked up): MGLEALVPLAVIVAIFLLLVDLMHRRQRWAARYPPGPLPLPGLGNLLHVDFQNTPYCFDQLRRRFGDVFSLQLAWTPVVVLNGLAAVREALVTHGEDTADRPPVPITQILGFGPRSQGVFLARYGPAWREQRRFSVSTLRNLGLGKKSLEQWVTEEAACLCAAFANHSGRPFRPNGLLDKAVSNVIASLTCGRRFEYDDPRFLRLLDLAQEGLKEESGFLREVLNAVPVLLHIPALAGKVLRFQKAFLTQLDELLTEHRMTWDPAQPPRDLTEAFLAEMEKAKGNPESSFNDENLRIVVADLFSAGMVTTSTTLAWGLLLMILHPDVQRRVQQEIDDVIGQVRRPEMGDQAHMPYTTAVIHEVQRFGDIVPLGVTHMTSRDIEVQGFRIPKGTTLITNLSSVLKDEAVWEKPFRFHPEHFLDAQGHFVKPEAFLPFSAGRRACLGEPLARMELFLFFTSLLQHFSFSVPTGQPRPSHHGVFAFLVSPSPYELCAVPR
# Method: qHTS Assay for Inhibitors and Substrates of Cytochrome P450 2D6 (AID 891); note: nearly all actives have a fitted effect of over 60% in size
# Condition Context: recombinant CYP2D6, luciferin-ME EGE luminescence; series mostly up to 57.1 µM
Inconclusive results are not listed. Activity calls are given as the source filed them. Calls come from the whole dose curve; as a rule, active = well fitted inhibition curve with a large enough effect; inconclusive = small, poorly fitted or top-dose-only effect; inactive = no such curve, though single readings can be large or run the other way.
Allowed answers: 1 (yes) = active, 0 (no) = inactive

Check out these entries, answers already filled in.
- Molecule: "CC(C)NC[C@H](O)c1ccc2ccccc2c1"
  Qualitative Label: "1 (yes)"
- Molecule: "CCOC(=O)[C@H](N)/C=C(\\C)CP(=O)(O)O"
  Qualitative Label: "1 (yes)"
- Molecule: "CCCCCCCC1=CC2=CC(=O)C(C)(OC(C)=O)C(=O)C2=CN1CCc1ccccc1 (stereo not given)"
  Qualitative Label: "1 (yes)"
- Molecule: "CCn1ccnc1C[C@@H]1COc2ccccc2O1"
  Qualitative Label: "1 (yes)"
- Molecule: "COc1cc2nc(N3CCN(C(=O)[C@H]4CCCO4)CC3)nc(N)c2cc1OC"
  Qualitative Label: "0 (no)"

Request: Could you kindly confirm the outcome this assay logged for C=CC(C)(C)c1[nH]c2ccccc2c1C1=C(O)C(=O)C(c2c[nH]c3c(CC=C(C)C)cccc23)=C(O)C1=O ?
Response: 1 (yes)

Request: And what about the molecule COc1cc(N)c(Cl)cc1C(=O)OCCCN1CCCCC1 ?
Response: 1 (yes)

Request: Same question for c1csc(CNc2ncnc3ccc(-c4ccc5c(c4)OCO5)cc23)c1 please.
Response: 1 (yes)

Request: Please do the same for C=C[C@H](N)CCC(=O)O as well.
Response: 0 (no)

Request: Try this molecule next: CC[N+](C)(CC)CCC[n+]1c(-c2ccccc2)c2cc(N)ccc2c2ccc(N)cc21
Response: 1 (yes)

Request: Another molecule to check: C=CCN1CCN(c2nc3ccccc3nc2C#N)CC1
Response: 1 (yes)

Request: Next molecule: COc1ccc(Cl)cc1N=Nc1ncc[nH]1
Response: 1 (yes)

Request: Input CNCCCCCCCCSc1nc(C(C)C)ccc1C(=O)c1cccs1
Response: 1 (yes)

Request: Can you check COCCNC(=O)COc1ccc(OCCNC[C@@H](O)COc2ccccc2)cc1 next?
Response: 1 (yes)

---

# Method: Primary qHTS for inhibitors of nuclear receptor binding SET domain protein 2 (NSD2) in an isogenic RCH-ACV NSD2 p.E1099K mutant (9B) (AID 1645876); note: potency is the fitted concentration of half-maximal effect; nearly all actives have a fitted effect of over 70% in size
# Condition Context: RCH-ACV (leukaemia line) NSD2 E1099K (9B) viability, CellTiter-Glo, 72 h; series mostly up to 44.9 µM
Inconclusive results are not listed. Activity calls are given as the source filed them. Calls follow the shape of the dose curve; as a rule, active = well fitted inhibition curve with a large enough effect; inconclusive = small, poorly fitted or top-dose-only effect; inactive = flat fitted curve, though single readings scatter.
Exercise: state measured Potency for each of the molecules provided.

Some molecules with recorded Potency:
- Molecule: "O=S(=O)(NCCNC/C=C/c1ccc(Br)cc1)c1cccc2cnccc12"
  Potency: "16.6 µM (active)"
- Molecule: "N#CCC(C1CCCC1)n1cc(-c2ncnc3[nH]ccc23)cn1 (stereo not given)"
  Potency: "12.9 µM (active)"
- Molecule: "C=C1C(=O)O[C@@H]2[C@H]1[C@H](O)C[C@]1(C)[C@@H](O)CC=C(C)[C@@H]21"
  Potency: "11.5 µM (active)"
- Molecule: "COc1cc(OC)c(C(=O)/C=C/c2ccccc2)c2c1C=CC(C)(C)O2"
  Potency: "16.4 µM (active)"

Request: Returns the measured Potency for the input molecule. Input: COc1ccc(-c2cc(C(O)C3CCCCN3)c3ccccc3n2)cc1 (stereo not given)
Response: 7.42 µM (active)
